// provenance: PubChem BioAssay (NCATS)

- experiment: qHTS for Inhibitors of Plasmodium falciparum (7G8) proliferation (AID 504316); note: nearly all actives have a fitted effect of over 65% in size
- cond: P. falciparum 7G8 in erythrocytes, SYBR Green DNA, 72 h; series mostly up to 6.7 µM
Results filed as inconclusive are left out. Active and inactive are the calls of the source. Calls come from the whole dose curve; as a rule, active = well fitted inhibition curve with a large enough effect; inconclusive = small, poorly fitted or top-dose-only effect; inactive = flat fitted curve, though single readings scatter.
Classes used: active, inactive

> print(dat)
                                   compound  assigned.class
1  CC(=O)OC[C@H]1O[C@H](C#Cc2ccc(C)cc2C)C=C[C@H]1OC(C)=O          active
2  CCCCc1nc2c(c3c1C[C@H](C)OC3)CN(C(=O)NCCc1c[nH]c3ccccc13)CC2        inactive
3  COc1cccc([C@@H]2Oc3ccc(Br)cc3C(=O)[C@@H]2OC(=O)Nc2cc(OC)c(OC)c(OC)c2)c1        inactive
4  CC1(OC(=O)CCc2ccccc2)C(=O)C=C2C=C(c3ccc(C#N)cc3)N(Cc3ccco3)C=C2C1=O (stereo not given)        inactive
5  CCCCC1=CC2=CC(=O)C(C)(OC(=O)CC)C(=O)C2=CN1c1ccncc1 (stereo not given)        inactive

----------
Below: a set of entries, each annotated with reported max response.
- experiment: qHTS assay for small molecule agonists of the antioxidant response element (ARE) signaling pathway measured by Nrf2-dependant transcriptional activity - cell viability counter screen (AID 720653); note: % is set by controls: 0 for no effect and ±100 for the full control effect
- cond: ARE-bla HepG2 viability, CellTiter-Glo ATP luminescence, 16 h; stronger effect = lower value
Inconclusive results are not listed.
readout-type: max response (%)

> print(dat)
                                    compound  readout.type  quantity.unit  numeric.readout
 1                  O=C(Cl)c1cccc(C(=O)Cl)c1  max response              %             5.28
 2                          C=CCOC(=O)CC(C)C  max response              %            -7.46
 3  Cc1ccc(N=Nc2c(O)ccc3ccccc23)c([N+](=O)[O-])c1  max response              %            -11.8
 4                               COCCOCCOCCO  max response              %            -1.82
 5       CCc1c(C(=O)O)c(=O)cnn1-c1ccc(Cl)cc1  max response              %            -3.97
 6                           CCCCCCCCCC(C)=O  max response              %            -10.8
 7                 CC1(C)C(=O)N(Cl)C(=O)N1Cl  max response              %            -14.6
 8             CNc1nc(=O)n(C2CCCCC2)c(=O)n1C  max response              %             3.71
 9                  C=C(C)C(=O)OCCCCCCCCCCCC  max response              %             11.2
10  CCCCCCC(O)CCCCCCCCCCC(=O)O (centres undefined)  max response              %           -0.036
11               O=C(O)c1ccc2c(c1)C(=O)OC2=O  max response              %            -5.37
12                       CCCCCCCCCCCCCCN(C)C  max response              %            -6.77
13  Cn1c(=O)[nH]c(=O)n(C2CCC(O)CC2)c1=O (centres undefined)  max response              %             7.46
14                   COc1ccccc1NC(=O)CC(C)=O  max response              %             2.57
15  CCc1cccc(C)c1N(C(=O)CS(=O)(=O)O)[C@@H](C)COC  max response              %            -5.93
16                               CCCCOCCOCCO  max response              %             3.56
17  CCC/C(=N\OCC)C1=C(O)CC(O)(CC(C)S(=O)(=O)CC)CC1=O (centres undefined)  max response              %            -10.1
18  CC1(C)[C@@H]([C@@H](Br)C(Br)(Br)Br)[C@H]1C(=O)O[C@H](C#N)c1cccc(Oc2ccccc2)c1  max response              %            -14.5
19                             OCCOCCOCCOCCO  max response              %             2.46
20                      NN(c1ccccc1)c1ccccc1  max response              %             -7.4
21  O=C=NC1CCC(CC2CCC(N=C=O)CC2)CC1 (centres undefined)  max response              %            -1.04
22                CCCCCCCC/C=C\CCCCCCCCCCCCC  max response              %              1.5
23  CC(C)Cc1c(C(=O)O)c(C(F)F)nc(C(F)(F)F)c1C1=NCCS1  max response              %             3.82
24                        CCCOC(=O)NCCCN(C)C  max response              %            -5.96
25                           CCCCN(CCCC)CCCC  max response              %            -5.72
26                           Cc1ccc(Cl)cc1Cl  max response              %             7.57
27                        CCC(=O)OCCc1ccccc1  max response              %            0.747
28                          O=C1CCCCCCCCCCC1  max response              %            -14.8
29          CC(=O)N(CCN(C(C)=O)C(C)=O)C(C)=O  max response              %            -1.28
